These data points were gathered from ChEMBL document CHEMBL5576124.

test: Stability in mouse liver microsomes assessed as parent compound remaining measured after 15 mins; format: ADME, Microsome; settings: read-out: Stability
Quantity: remaining at 0.25 h (%)

Compound	Numeric Value
Cc1cc(-c2c[nH]c3ncc(-c4ccc(C5CCN(C6CN(c7ccc8c(c7)C(=O)N(C7CCC(=O)NC7=O)C8=O)C6)CC5)cc4)nc23)ccc1C(=O)N(C)C (stereo unspecified)	85.5

----------
biological target: Protein cereblon/Mitogen-activated protein kinase kinase kinase kinase 1 (Homo sapiens, UniProt Q92918+Q96SW2); assay: PROTAC activity at CRBN/HPK1 in human Jurkat cells assessed as maximal degradation of HPK1 protein incubated for 24 hrs by Western blotting analysis relative to control; assay type: cell-based
Sequence (Q92918 whole entry, looked up): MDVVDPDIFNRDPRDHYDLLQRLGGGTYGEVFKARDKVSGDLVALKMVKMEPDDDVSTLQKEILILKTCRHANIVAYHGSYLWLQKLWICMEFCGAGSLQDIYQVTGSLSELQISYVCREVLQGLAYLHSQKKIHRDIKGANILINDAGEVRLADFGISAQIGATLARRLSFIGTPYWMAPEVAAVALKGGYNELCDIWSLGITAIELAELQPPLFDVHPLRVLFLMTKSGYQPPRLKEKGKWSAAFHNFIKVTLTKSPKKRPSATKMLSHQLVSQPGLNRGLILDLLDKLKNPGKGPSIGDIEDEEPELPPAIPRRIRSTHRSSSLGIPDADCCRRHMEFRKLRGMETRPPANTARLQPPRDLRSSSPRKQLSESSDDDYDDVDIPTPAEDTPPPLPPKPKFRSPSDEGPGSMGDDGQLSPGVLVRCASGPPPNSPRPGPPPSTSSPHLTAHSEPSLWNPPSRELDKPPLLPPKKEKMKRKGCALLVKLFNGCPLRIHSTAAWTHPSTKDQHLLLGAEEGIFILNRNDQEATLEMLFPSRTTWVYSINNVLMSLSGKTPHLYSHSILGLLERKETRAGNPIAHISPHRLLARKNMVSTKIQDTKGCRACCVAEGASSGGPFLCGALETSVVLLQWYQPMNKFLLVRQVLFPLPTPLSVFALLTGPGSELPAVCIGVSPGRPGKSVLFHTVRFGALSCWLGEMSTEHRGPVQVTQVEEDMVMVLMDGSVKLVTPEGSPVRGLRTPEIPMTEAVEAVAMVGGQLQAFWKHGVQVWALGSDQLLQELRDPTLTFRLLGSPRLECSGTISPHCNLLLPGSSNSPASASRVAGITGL
Sequence (Q96SW2 whole entry, looked up): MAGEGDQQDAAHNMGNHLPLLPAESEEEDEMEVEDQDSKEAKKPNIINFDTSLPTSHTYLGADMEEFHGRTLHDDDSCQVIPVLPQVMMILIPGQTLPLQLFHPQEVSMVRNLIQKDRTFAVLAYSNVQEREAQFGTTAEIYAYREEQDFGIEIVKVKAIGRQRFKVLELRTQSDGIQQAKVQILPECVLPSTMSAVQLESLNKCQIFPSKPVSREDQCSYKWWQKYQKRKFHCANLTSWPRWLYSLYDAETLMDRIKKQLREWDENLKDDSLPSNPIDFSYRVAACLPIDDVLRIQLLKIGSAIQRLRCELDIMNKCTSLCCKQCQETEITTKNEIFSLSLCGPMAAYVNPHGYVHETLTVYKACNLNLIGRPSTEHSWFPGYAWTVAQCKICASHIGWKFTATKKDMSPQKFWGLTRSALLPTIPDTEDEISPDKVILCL
Listed here are compounds together with their documented Emax.
Quantity: Emax (%)

Compound	Quantity	Numeric Value
Cc1cc(-c2c[nH]c3ncc(-c4ccc(C5CCN(C(=O)C6CCN(c7ccc8c(c7)C(=O)N(C7CCC(=O)NC7=O)C8=O)CC6)CC5)cc4)nc23)ccc1C(=O)N(C)C (stereo not drawn)	Emax	63.6
Cc1cc(-c2c[nH]c3ncc(-c4ccc(C5CCN(C(=O)CCNc6cccc7c6C(=O)N(C6CCC(=O)NC6=O)C7=O)CC5)cc4)nc23)ccc1C(=O)N(C)C (stereo not drawn)	Emax	63.6
Cc1cc(-c2c[nH]c3ncc(-c4ccc(C5CCN(c6ccc7c(c6)C(=O)N(C6CCC(=O)NC6=O)C7=O)CC5)cc4)nc23)ccc1C(=O)N(C)C (stereo not drawn)	Emax	3.4
